Reference source: the supplement of paper PMC6897291

System: U-2932
Test: growth inhibition by drug alone (1 - RLU/untreated control) (fraction); higher = stronger inhibition
Details: 1000 nM; time (day): 3; 177Lu-lilotomab satetraxetan 0 ug/ml
EXPERIMENTAL_READOUT: growth inhibition by drug alone

COc1c(C)c2c(c(O)c1C/C=C(\C)CCC(=O)OCCN1CCOCC1)C(=O)OC2 [Mycophenolate mofetil (CellCept)] ... 0.727
N#CCNC(=O)c1ccc(-c2ccnc(Nc3ccc(N4CCOCC4)cc3)n2)cc1 ... -0.161
CC(=O)c1c(C)c2cnc(Nc3ccc(N4CCNCC4)cn3)nc2n(C2CCCC2)c1=O ... -0.0353
CC(C)Oc1cc(Nc2nc(N[C@@H](C)c3ccc(F)cn3)ncc2Cl)n[nH]1 ... 0.0367
CCCC(=O)[O-].[Na+] [Sodium butyrate] ... -0.0747
Nc1nc(Cl)nc2c1ncn2[C@H]1C[C@H](O)[C@@H](CO)O1 ... 0.943
Cn1cncc1[C@@](N)(c1ccc(Cl)cc1)c1ccc2c(c1)c(-c1cccc(Cl)c1)cc(=O)n2C [Tipifarnib (Zarnestra)] ... 0.757
COc1nc(-c2ccc3c(c2)OCO3)n(-c2ccc(NC(=O)CSc3ccccc3)cc2)n1 ... -0.143
Cn1cnc([N+](=O)[O-])c1Sc1ncnc2[nH]cnc12 ... 0.0785
CC1(C)CNc2cc(NC(=O)c3cccnc3NCc3ccncc3)ccc21 [Motesanib Diphosphate] ... -0.0958
Cc1ccc(F)c(NC(=O)Nc2ccc(-c3cccc4[nH]nc(N)c34)cc2)c1 ... 0.133
NC(=O)c1ccc(I)c([N+](=O)[O-])c1 ... -0.105
CC(C)c1ccc(Cn2ccc3c4c(N)nc(NC5CC5)nc4ccc32)cc1 ... 0.976
O=C(O)c1ccc(-c2c[nH]c3ncc(-c4ccccc4)cc23)cc1C1CCCC1 ... -0.0285
Nc1ncn([C@H]2C[C@H](O)[C@@H](CO)O2)c(=O)n1 ... -0.215
O=C1NC(=O)/C(=C\c2cccc(C(F)(F)F)c2)S1 ... -0.0663
COc1cc(OC2CCN(C)CC2)ccc1Nc1ncc2c(n1)n(C1CCCC1)c(=O)n2C ... -0.165
Cc1ccc(NC(=O)c2ccc(CN3CCN(C)CC3)cc2)cc1Nc1nccc(-c2cccnc2)n1 ... -0.0113
